- test_system: T1, Pertussis toxin (PT) (Bordetella pertussis, UniProt P04977 35-269; P04978 28-226; P04979 29-227; P0A3R5 43-152; P04981 35-133)
- T1 construct: mature; also called purified PT; biotinylated PT
- assay: 35S-labelled, His-tag purified free peptide (TNT expressed) on biotinylated PT on streptavidin magnetic beads, scintillation counting (test 1)

{"columns": ["binder", "binding result"],
 "data": [
  ["MGRGSHHHHHHARSSHCRHRNCHTITRGNMRIETPNNIRKDANAPKASAI [PP26 variant # 5 (seq # 197557)]", "binds"],
  ["MGRGSHHHHHHARSTMNTNRMDIQRLMTNHVKRDSSPGSIDANAPKASAI [PP26 variant # 6 (seq # 197596)]", "binds"],
  ["MGRGSHHHHHHARSWQPEVKMSSLVDTSQTVGAAVETRTTDANAPKASA [PP26 variant # 14 (seq # 197825)]", "binds"],
  ["MGRGSHHHHHHARSWRDTRKLHMRHYFPLAIDSYWDHTLRDANAPKASAI [PP26 variant # 15 (seq # 198000)]", "binds"]
]}
